Origin of values: paper PMC7129073

Test system: S. pneumoniae
Protocol description: Broth microdilution
Assay type: cell-based, Streptococcus pneumoniae
Condition details: NCCLS breakpoints (Amox/Clav 2/1 mcg/mL)
The label depends only on %Sus: met if it is at least 60%, not met if it is smaller.

Study these solved cases before continuing.
Compound: CC1(C)S[C@@H]2[C@H](NC(=O)[C@H](N)c3ccccc3)C(=O)N2[C@H]1C(=O)O [ampicillin]
Qualitative label: not met

Compound: CC[C@H]1OC(=O)[C@H](C)[C@@H](O[C@H]2C[C@@](C)(OC)[C@@H](O)[C@H](C)O2)[C@H](C)[C@@H](O[C@@H]2O[C@H](C)C[C@H](N(C)C)[C@H]2O)[C@](C)(O)C[C@@H](C)CN(C)[C@H](C)[C@@H](O)[C@]1(C)O [azithromycin]
Qualitative label: met

Compound: CC[C@H]1OC(=O)[C@H](C)[C@@H](O[C@H]2C[C@@](C)(OC)[C@@H](O)[C@H](C)O2)[C@H](C)[C@@H](O[C@@H]2O[C@H](C)C[C@H](N(C)C)[C@H]2O)[C@](C)(O)C[C@@H](C)C(=O)[C@H](C)[C@@H](O)[C@]1(C)O [erythromycin]
Qualitative label: met

Query compound follows.
Item CO/N=C(\C(=O)N[C@@H]1C(=O)N2C(C(=O)O)=C(COC(N)=O)CS[C@H]12)c1ccco1 [Cefuroxime, cefuroxim] with %Sus of 60% or above?
met

---

Kindly supply the reported MIC range values for the records listed here.
System: F. necrophorum
Protocol description: E-test, 13 clinical isolates
Assay type: cell-based, Fusobacterium necrophorum

Compound string: C[C@@H](O)[C@H]1C(=O)N2C(C(=O)O)=C(SCCN=CN)C[C@H]12
MIC range: 0.004 to 32 µg/mL
--
Compound string: C[C@H]1c2cccc(O)c2C(=O)C2=C(O)[C@]3(O)C(=O)C(C(N)=O)=C(O)[C@@H](N(C)C)[C@@H]3[C@@H](O)[C@@H]21
MIC range: 0.016 to 0.75 µg/mL
--
Compound string: CO/N=C(\C(=O)N[C@@H]1C(=O)N2C(C(=O)O)=C(COC(C)=O)CS[C@H]12)c1csc(N)n1
MIC range: 0.016 to 256 µg/mL
--
Compound string: Cc1ncc([N+](=O)[O-])n1CCO
MIC range: 0.016 to 2 µg/mL

Hello, I would appreciate it if you could give MIC range for each entry below.
1. CC1(C)S[C@@H]2[C@H](NC(=O)Cc3ccccc3)C(=O)N2[C@H]1C(=O)O
2. CCC[C@@H]1C[C@@H](C(=O)N[C@@H]([C@H]2O[C@H](SC)[C@H](O)[C@@H](O)[C@H]2O)[C@H](C)Cl)N(C)C1

1: 0.004 to 256 µg/mL; 2: 0.016 to 0.125 µg/mL

---

System: Enterobacter spp
Protocol description: E-test susceptibility
Type: cell-based
Condition details: non ICU
Kindly supply the reported Susceptible isolates values for the records listed here.
Give bare numbers, in %.

Recorded Susceptible isolates, per entry:
Molecule: C[C@@H](O)[C@H]1C(=O)N2C(C(=O)O)=C(SCCN=CN)C[C@H]12 [imipenem]
Target under test: Enterobacter spp
Result value: 98
--
Molecule: CC(C)(O/N=C(\C(=O)N[C@@H]1C(=O)N2C(C(=O)[O-])=C(C[n+]3ccccc3)CS[C@H]12)c1csc(N)n1)C(=O)O [ceftazidime]
Target under test: Enterobacter spp
Result value: 89
--
Molecule: CO/N=C(\C(=O)N[C@@H]1C(=O)N2C(C(=O)[O-])=C(C[N+]3(C)CCCC3)CS[C@H]12)c1csc(N)n1 [cefepime]
Target under test: Enterobacter spp
Result value: 92

Hello, I would appreciate it if you could give Susceptible isolates for each entry below.
1. CN(C)c1cc(NC(=O)CNC(C)(C)C)c(O)c2c1C[C@H]1C[C@H]3[C@H](N(C)C)C(O)=C(C(N)=O)C(=O)[C@@]3(O)C(O)=C1C2=O [Tigecycline]
2. CNC(C)C1CCC(N)C(OC2C(N)CC(N)C(OC3OCC(C)(O)C(NC)C3O)C2O)O1 (centres unmarked) [gentamicin]

96
100

---

Test system: S. pneumoniae (SPN)
Protocol description: SENTRY Brazil, NCCLS broth microdilution
Assay type: cell-based, Streptococcus pneumoniae
Condition details: 2000
Quantity kind: % S (%)
Give bare numbers, in %.

Recorded % S, per entry:
Compound string: CC[C@H]1OC(=O)[C@H](C)[C@@H](O[C@H]2C[C@@](C)(OC)[C@@H](O)[C@H](C)O2)[C@H](C)[C@@H](O[C@@H]2O[C@H](C)C[C@H](N(C)C)[C@H]2O)[C@](C)(O)C[C@@H](C)C(=O)[C@H](C)[C@@H](O)[C@]1(C)O
Quantity kind: % S
Result value: 91
//
Compound string: CC1(C)S[C@@H]2[C@H](NC(=O)Cc3ccccc3)C(=O)N2[C@H]1C(=O)O
Quantity kind: % S
Result value: 75
//
Compound string: O=C(N[C@H](CO)[C@H](O)c1ccc([N+](=O)[O-])cc1)C(Cl)Cl
Quantity kind: % S
Result value: 99

Could you now consider this next compound?
Param readout= % S; system= S. pneumoniae (SPN); entry= "CN(C)[C@@H]1C(O)=C(C(N)=O)C(=O)[C@@]2(O)C(O)=C3C(=O)c4c(O)cccc4[C@@](C)(O)[C@H]3C[C@@H]12" ; returns value.
82

---

Kindly supply the reported %R values for the records listed here.
System: S. pneumoniae
Protocol description: MIC of invasive strains, Saint George Hospital 2001–2004
Format: cell-based, Streptococcus pneumoniae
State the result as a value with its unit after it.

Recorded %R, per entry:
Compound: C[C@@H](O)[C@H]1C(=O)N2C(C(=O)O)=C(SCCN=CN)C[C@H]12 [imipenem]
%R: 0%
//
Compound: CC[C@H]1OC(=O)[C@H](C)[C@@H](O[C@H]2C[C@@](C)(OC)[C@@H](O)[C@H](C)O2)[C@H](C)[C@@H](O[C@@H]2O[C@H](C)C[C@H](N(C)C)[C@H]2O)[C@](C)(O)C[C@@H](C)C(=O)[C@H](C)[C@@H](O)[C@]1(C)O [erythromycin]
%R: 18%
//
Compound: C[C@H]1COc2c(N3CCN(C)CC3)c(F)cc3c(=O)c(C(=O)O)cn1c23 [levofloxacin]
%R: 0%
//
Compound: CO/N=C(\C(=O)N[C@@H]1C(=O)N2C(C(=O)O)=C(COC(C)=O)CS[C@H]12)c1csc(N)n1 [cefotaxime]
%R: 4.8%
//
Compound: CO/N=C(\C(=O)N[C@@H]1C(=O)N2C(C(=O)O)=C(COC(N)=O)CS[C@H]12)c1ccco1 [Cefuroxime, cefuroxim]
%R: 4.8%

# get_value(readout='%R', item= CC1(C)S[C@@H]2[C@H](NC(=O)Cc3ccccc3)C(=O)N2[C@H]1C(=O)O [penicillin] )
54%

---

Kindly supply the reported resistant values for the records listed here.
Test system: S. pneumoniae
Format: cell-based, Streptococcus pneumoniae
Numbers only, in %.

Recorded resistant, per entry:
Molecule: CN[C@H](CC(C)C)C(=O)N[C@H]1C(=O)N[C@@H](CC(N)=O)C(=O)N[C@H]2C(=O)N[C@H]3C(=O)N[C@H](C(=O)N[C@H](C(=O)O)c4cc(O)cc(O)c4-c4cc3ccc4O)[C@H](O)c3ccc(c(Cl)c3)Oc3cc2cc(c3O[C@@H]2O[C@H](CO)[C@@H](O)[C@H](O)[C@H]2O[C@H]2C[C@](C)(N)[C@H](O)[C@H](C)O2)Oc2ccc(cc2Cl)[C@H]1O
Result value: 0
--
Molecule: CCC[C@@H]1C[C@@H](C(=O)N[C@@H]([C@H]2O[C@H](SC)[C@H](O)[C@@H](O)[C@H]2O)[C@H](C)Cl)N(C)C1
Result value: 5
--
Molecule: CC1COc2c(N3CCN(C)CC3)c(F)cc3c(=O)c(C(=O)O)cn1c23 (stereo not shown)
Result value: 0

Could you now consider this next molecule?
# get_value(readout='resistant', item= "CO/N=C(\C(=O)N[C@@H]1C(=O)N2C(C(=O)O)=C(COC(C)=O)CS[C@H]12)c1csc(N)n1" )
0

---

The listing below reports MIC for compounds tested on K. pneumoniae.

Recorded MIC, per entry:
Compound: CO[C@@]1(NC(=O)Cc2cccs2)C(=O)N2C(C(=O)O)=C(COC(N)=O)CS[C@@H]21
Target under test: K. pneumoniae
MIC: > 64 µg/mL
--
Compound: C[C@@H](O)[C@H]1C(=O)N2C(C(=O)O)=C(S[C@@H]3CN[C@H](C(=O)N(C)C)C3)[C@H](C)[C@H]12
Target under test: K. pneumoniae
MIC: 4 to 16 µg/mL
--
Compound: C[C@@H](O)[C@H]1C(=O)N2C(C(=O)O)=C(SCCN=CN)C[C@H]12
Target under test: K. pneumoniae
MIC: 1 to 8 µg/mL

Hello, I would appreciate it if you could give MIC for each entry below.
1. NCC[C@H](O)C(=O)N[C@@H]1C[C@H](N)[C@@H](O[C@H]2O[C@H](CN)[C@@H](O)[C@H](O)[C@H]2O)[C@H](O)[C@H]1O[C@H]1O[C@H](CO)[C@@H](O)[C@H](N)[C@H]1O
2. CO/N=C(\C(=O)N[C@@H]1C(=O)N2C(C(=O)[O-])=C(C[N+]3(C)CCCC3)CS[C@H]12)c1csc(N)n1 [cefepime]
3. C[C@@H](O)[C@H]1C(=O)N2C(C(=O)O)=C(S[C@@H]3CN[C@H](C(=O)Nc4cccc(C(=O)O)c4)C3)[C@H](C)[C@H]12

4 µg/mL
> 64 µg/mL
> 16 µg/mL
